Give measured pKi for each item. Keep answers brief.
target: biotin protein ligase from Escherichia coli (EcBPL) (Escherichia coli (strain K12), UniProt P06709); assay: BPL enzyme inhibition assay (3H-biotin incorporation), EcBPL; assay type: biochemical; settings: read-out: Ki EcBPL (E. coli BPL)
Sequence (P06709 whole entry, looked up): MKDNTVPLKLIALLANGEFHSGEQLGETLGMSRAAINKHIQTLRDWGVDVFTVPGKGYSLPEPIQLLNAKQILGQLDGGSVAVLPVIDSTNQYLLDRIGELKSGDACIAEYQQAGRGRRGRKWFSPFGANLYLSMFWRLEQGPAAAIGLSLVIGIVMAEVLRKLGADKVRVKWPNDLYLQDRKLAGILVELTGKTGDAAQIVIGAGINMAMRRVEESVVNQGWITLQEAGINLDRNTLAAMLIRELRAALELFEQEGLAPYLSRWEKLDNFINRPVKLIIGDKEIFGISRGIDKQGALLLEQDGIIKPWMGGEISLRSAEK
pKi: −log10 of the molar value.

*Q* # lookup: pKi of CC1(C)O[C@@H]2[C@H](O1)[C@@H](n1cnc3c(N)ncnc31)O[C@H]2Cn1cc(CCCCC[C@@H]2SC[C@@H]3NC(=O)N[C@@H]32)nn1 [3.25]
*A* < 4.52

*Q* Could you do the same for Cc1ccc2oc(=O)n(CCCCn3cc(CCCCC[C@@H]4SC[C@@H]5NC(=O)N[C@@H]54)nn3)c2c1 [6.09] , please?
*A* < 4.52

*Q* What about O=C1N[C@H]2[C@H](CS[C@H]2CCCCCc2cn(CCCCOc3ccc4ccccc4c3)nn2)N1 [6.07] ?
*A* < 4.52

*Q* Same thing, different compound: Nc1ncnc2c1ncn2CCCCn1cc(CCCCC[C@@H]2SC[C@@H]3NC(=O)N[C@@H]32)nn1 [4.01]
*A* < 4.52

---

molecular target: biotin protein ligase from Escherichia coli (EcBPL) (Escherichia coli (strain K12), UniProt P06709); assay: BPL enzyme inhibition assay (3H-biotin incorporation), EcBPL; type: biochemical
pKi: −log10 of the molar value.
Would you mind telling me the reported pKi of each entry?

*Q* Need pKi of Nc1ncnc2c1ncn2CCCCCn1cc(CCCC[C@@H]2SC[C@@H]3NC(=O)N[C@@H]32)nn1 [4.13] , thanks.
*A* < 5.00

*Q* Now the compound CC1(C)O[C@@H]2[C@H](O1)[C@@H](n1cnc3c(N)ncnc31)O[C@H]2Cn1cc(CCCC[C@@H]2SC[C@@H]3NC(=O)N[C@@H]32)nn1 [4.09]
*A* < 5.00

*Q* // query: CC1(C)O[C@@H]2[C@H](O1)[C@@H](n1cnc3c(N)ncnc31)O[C@H]2Cn1cc(CCCCC[C@@H]2SC[C@@H]3NC(=O)N[C@@H]32)nn1 [3.25]
*A* < 4.05

*Q* Another compound to check: Nc1ncnc2c1ncn2CCCCn1cc(CCCCC[C@@H]2SC[C@@H]3NC(=O)N[C@@H]32)nn1 [4.01]
*A* < 4.05

---

molecular target: M. tuberculosis BPL (Mycobacterium tuberculosis (strain ATCC 25618 / H37Rv)); experiment: BPL inhibition, M. tuberculosis BPL
Sequence (I6YFP0 whole entry, looked up): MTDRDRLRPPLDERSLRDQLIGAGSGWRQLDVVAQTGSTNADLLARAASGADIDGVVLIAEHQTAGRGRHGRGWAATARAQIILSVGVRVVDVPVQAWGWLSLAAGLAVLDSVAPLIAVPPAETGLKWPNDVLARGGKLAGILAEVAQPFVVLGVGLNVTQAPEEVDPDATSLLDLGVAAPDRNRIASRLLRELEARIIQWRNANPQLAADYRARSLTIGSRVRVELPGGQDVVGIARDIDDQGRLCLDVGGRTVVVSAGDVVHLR
Readout type: Ki (µM)
Please give a number only; it is taken to be in µM.

*Q* So what does the record say about Ki for `Cc1ccc2oc(=O)n(CCCCc3noc(CCCCC[C@@H]4SC[C@@H]5NC(=O)N[C@@H]54)n3)c2c1` ?
*A* 290

---

biological target: biotin protein ligase from Homo sapiens (HsBPL) (Homo sapiens (Human), UniProt P50747)
Sequence (P50747 whole entry): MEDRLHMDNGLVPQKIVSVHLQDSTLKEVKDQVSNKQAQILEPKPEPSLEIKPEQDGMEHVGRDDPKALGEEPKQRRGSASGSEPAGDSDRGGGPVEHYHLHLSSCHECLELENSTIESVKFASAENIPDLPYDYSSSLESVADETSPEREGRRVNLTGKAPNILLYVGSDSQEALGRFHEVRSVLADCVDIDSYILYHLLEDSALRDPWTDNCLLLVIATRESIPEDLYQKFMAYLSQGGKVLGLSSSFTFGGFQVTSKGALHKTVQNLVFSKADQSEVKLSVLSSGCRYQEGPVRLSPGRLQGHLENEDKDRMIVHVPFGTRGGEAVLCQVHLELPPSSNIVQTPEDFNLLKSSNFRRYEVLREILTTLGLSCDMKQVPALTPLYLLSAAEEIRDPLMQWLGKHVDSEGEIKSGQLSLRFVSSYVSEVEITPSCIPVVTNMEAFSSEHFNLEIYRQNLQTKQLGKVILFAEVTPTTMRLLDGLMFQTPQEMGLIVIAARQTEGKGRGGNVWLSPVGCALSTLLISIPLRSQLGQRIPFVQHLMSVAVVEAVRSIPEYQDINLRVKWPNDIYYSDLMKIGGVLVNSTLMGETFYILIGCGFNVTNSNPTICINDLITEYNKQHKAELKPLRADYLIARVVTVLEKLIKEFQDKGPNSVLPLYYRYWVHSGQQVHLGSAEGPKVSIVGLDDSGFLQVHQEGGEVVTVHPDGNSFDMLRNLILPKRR
Readout type: IC50

*Q* // returns reported IC50 for input `Nc1ncnc2c1ncn2CCCCn1cc(CCCCC[C@@H]2SC[C@@H]3NC(=O)N[C@@H]32)nn1`
*A* > 200 µM

---

molecular target: biotin protein ligase from Escherichia coli (EcBPL) (Escherichia coli (strain K12), UniProt P06709); experiment: BPL enzyme inhibition assay (3H-biotin incorporation), EcBPL
Readout type: IC50

*Q* // IC50 lookup, key: Nc1ncnc2c1ncn2CCCCn1cc(CCCCC[C@@H]2SC[C@@H]3NC(=O)N[C@@H]32)nn1 [4.01]
*A* > 200 µM
